# Tested on: Carbonic anhydrase 2 (Homo sapiens) (UniProt P00918)
Define the label as 1 (yes) when logKi is strictly less than 2 and as 0 (no) in all remaining cases.

Examples with answers:
Molecule: COc1ccccc1/C=N/c1ccc(S(N)(=O)=O)cc1
Cat: 0 (no)

Molecule: NS(=O)(=O)c1ccc(/N=C/C2=C(Cl)CCC=C2)cc1
Cat: 0 (no)

Molecule: NS(=O)(=O)c1ccc(C/N=C/c2ccc([N+](=O)[O-])cc2)cc1 (stereo in doubt; 60)
Cat: 0 (no)

Molecule: CC(=O)Nc1ccc(/C=N/CCc2ccc(S(C)(=O)=O)cc2)cc1
Cat: 1 (yes)

Molecule: NS(=O)(=O)c1ccc(/N=C/c2cccc([N+](=O)[O-])c2)cc1
Cat: 0 (no)

In: Hello, I'm reviewing records and need to know if logKi of "NS(=O)(=O)c1ccc(/N=C/c2ccc(Cl)cc2)cc1" is below 2. Could you check?
Out: 0 (no)

In: Hello, I'm reviewing records and need to know if logKi of "NS(=O)(=O)c1ccc(/N=C/c2ccc([N+](=O)[O-])cc2)cc1" is below 2. Could you check?
Out: 1 (yes)

In: Hello, I'm reviewing records and need to know if logKi of "CS(=O)(=O)c1ccc(CC/N=C/c2ccccc2Cl)cc1" is below 2. Could you check?
Out: 0 (no)

* * *

# Tested on: UniProtKB P00918
Define the label as class 1 when logKi is strictly less than 2 and as class 0 in all remaining cases.

In: Hello, I'm reviewing records and need to know if logKi of "CS(=O)(=O)/N=C/C1=C(O)CCC=C1" is below 2. Could you check?
Out: class 1

In: Hello, I'm reviewing records and need to know if logKi of "NS(=O)(=O)c1ccc(C/N=C/c2ccccc2[N+](=O)[O-])cc1" is below 2. Could you check?
Out: class 0

In: Hello, I'm reviewing records and need to know if logKi of NS(=O)(=O)c1ccc(C/N=C/c2ccc([N+](=O)[O-])cc2)cc1 (stereo in doubt; 45) is below 2. Could you check?
Out: class 1

In: Hello, I'm reviewing records and need to know if logKi of "NS(=O)(=O)c1ccc(C/N=C/c2ccccc2O)cc1" is below 2. Could you check?
Out: class 0

In: Hello, I'm reviewing records and need to know if logKi of "COc1ccc(/C=N/Cc2ccc(S(N)(=O)=O)cc2)cc1" is below 2. Could you check?
Out: class 0

In: Hello, I'm reviewing records and need to know if logKi of "NS(=O)(=O)c1ccc(/N=C/C=C/c2ccccc2)cc1" is below 2. Could you check?
Out: class 1

* * *

The entries below come with measured logKi values attached.
# Tested on: UniProt P00918
Simply state the number, no unit and no words.

Some entries whose results are on file:
Structure string: CC(=O)Nc1ccc(/C=N/Cc2ccc(S(N)(=O)=O)cc2)cc1
Value: 2.04

Structure string: CC(=O)Nc1ccc(/C=N/c2ccc(S(N)(=O)=O)cc2)cc1
Value: 2.04

Structure string: COc1cc(/C=N/c2ccc(S(N)(=O)=O)cc2)ccc1C(C)=O
Value: 2

Proceed to the following item.
In: Give the observed logKi of "NS(=O)(=O)c1ccc(C/N=C/c2ccccc2Cl)cc1" for UniProt P00918.
Out: 1.95
